Entry source: patent US20060058231A1

Recorded BMPRIb binding relative to wild type for the following binders
Target: T1, BMPRIb receptor-Fc fusion (UniProt O00238 14-126)
T1 construct: BMP receptor-Fc fusion, detected with anti-human IgG-HRP; also called ALK-6
T1 sequence (looked up): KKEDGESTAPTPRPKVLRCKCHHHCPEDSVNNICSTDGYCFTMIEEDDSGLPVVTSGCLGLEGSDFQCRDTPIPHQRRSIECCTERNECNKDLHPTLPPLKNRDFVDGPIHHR
Assay: ELISA-like, fixed volume of conditioned media, receptor-Fc

A selection of reference data follows.
BINDER	BMPRIb binding relative to wild type
BMP-7 variant R134L (ligand) STGGKQRSQNRSKTPKNQEALRMASVAENSSSDQRQACKKHELYVSFRDLGWQDWIIAPEGYAAYYCEGECAFPLNSYMNATNHAIVQTLVHFINPETVPKPCCAPTQLNAISVLYFDDSSNVILKKYRNMVVLACGCH	1.02 relative to wt = 1.0
BMP-7 variant S77P (ligand) STGGKQRSQNRSKTPKNQEALRMASVAENSSSDQRQACKKHELYVSFRDLGWQDWIIAPEGYAAYYCEGECAFPLNPYMNATNHAIVQTLVHFINPETVPKPCCAPTQLNAISVLYFDDSSNVILKKYRNMVVRACGCH	0.95 relative to wt = 1.0
BMP-7 variant K39T (ligand) STGGKQRSQNRSKTPKNQEALRMASVAENSSSDQRQACTKHELYVSFRDLGWQDWIIAPEGYAAYYCEGECAFPLNSYMNATNHAIVQTLVHFINPETVPKPCCAPTQLNAISVLYFDDSSNVILKKYRNMVVRACGCH	0.86 relative to wt = 1.0

// BMP-7 variant E60S (ligand) STGGKQRSQNRSKTPKNQEALRMASVAENSSSDQRQACKKHELYVSFRDLGWQDWIIAPSGYAAYYCEGECAFPLNSYMNATNHAIVQTLVHFINPETVPKPCCAPTQLNAISVLYFDDSSNVILKKYRNMVVRACGCH : BMPRIb binding relative to wild type value = 0.87 relative to wt = 1.0
